# Test system: 415267-285-R-J2-PDC complex spheroid viability
# assay: Anticancer human tumor 415267-285-R-J2-PDC patient-derived breast carcinoma cell line growth inhibition [POLQ]
# particulars: second compound 0.0316 µM; first compound 0.01 µM; hits give low values
endpoint.name: viability, T/C (%)

{"columns": ["compound", "endpoint.name", "measured.result"],
 "data": [
  ["Cn1ncnc1[C@H]1c2n[nH]c(=O)c3cc(F)cc(c23)N[C@@H]1c1ccc(F)cc1 + Nc1ccc(C#CCN(C(=O)Cc2ncc(C(F)(F)F)cc2C(F)(F)F)c2ccc(F)cc2)nn1", "viability, T/C", 93.7],
  ["CC[C@@]1(O)C(=O)OCc2c1cc1n(c2=O)Cc2cc3c(CN(C)C)c(O)ccc3nc2-1 + COC1C(OC(N)=O)C(O)C(Oc2ccc3c(O)c(NC(=O)c4ccc(O)c(CC=C(C)C)c4)c(=O)oc3c2C)OC1(C)C", "viability, T/C", 82],
  ["COc1cccc(OCCCN)c1-c1cc(Nc2cnc(C#N)cn2)n[nH]1 + Cc1cccc(N(C)C(=O)C2C(O)CCN2c2nc(C)cc(C(F)(F)F)c2C#N)c1", "viability, T/C", 25.7],
  ["CC[C@@]1(O)C(=O)OCc2c1cc1n(c2=O)Cc2cc3c(CN(C)C)c(O)ccc3nc2-1 + Nc1ccc(C#CCN(C(=O)Cc2ncc(C(F)(F)F)cc2C(F)(F)F)c2ccc(F)cc2)nn1", "viability, T/C", 93.3],
  ["CCc1c2c(nc3ccc(O)cc13)-c1cc3c(c(=O)n1C2)COC(=O)[C@]3(O)CC + Nc1ccc(C#CCN(C(=O)Cc2ncc(C(F)(F)F)cc2C(F)(F)F)c2ccc(F)cc2)nn1", "viability, T/C", 12.2]
]}

----------
Here, each record is paired with measured viability, T/C data.
# System: 415267-285-R-J2-PDC complex spheroid viability
# assay: Anticancer human tumor 415267-285-R-J2-PDC cell line growth inhibition [POLQ];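 further: luminescence used as stand-in measure of viable cells; spheroids exposed to compounds for one week before readout; 100% = DMSO vehicle control viability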
# particulars: second compound 10 µM; first compound 0.0316 µM; hits give low values
endpoint.name: viability, T/C (%)

{"columns": ["compound", "measured.result"],
 "data": [
  ["CC(C)n1c(=O)n(C)c2cnc3cc(F)c(-c4ccc(OCCCN5CCCCC5)nc4)cc3c21 + Cc1cccc(N(C)C(=O)C2C(O)CCN2c2nc(C)cc(C(F)(F)F)c2C#N)c1", 99.1],
  ["C#Cc1c(F)ccc2cc(O)cc(-c3ncc4c(N5CC6CCC(C5)N6)nc(OCC56CCCN5CC(F)C6)nc4c3F)c12 (stereo not given) + Cc1cccc(N(C)C(=O)C2C(O)CCN2c2nc(C)cc(C(F)(F)F)c2C#N)c1", 105],
  ["CCCS(=O)(=O)Nc1ccc(F)c(C(=O)c2c[nH]c3ncc(-c4ccc(Cl)cc4)cc23)c1F + COC1C(OC(N)=O)C(O)C(Oc2ccc3c(O)c(NC(=O)c4ccc(O)c(CC=C(C)C)c4)c(=O)oc3c2C)OC1(C)C", 116],
  ["CC(C)n1c(=O)n(C)c2cnc3cc(F)c(-c4ccc(OCCCN5CCCCC5)nc4)cc3c21 + COC1C(OC(N)=O)C(O)C(Oc2ccc3c(O)c(NC(=O)c4ccc(O)c(CC=C(C)C)c4)c(=O)oc3c2C)OC1(C)C", 101],
  ["C#Cc1c(F)ccc2cc(O)cc(-c3ncc4c(N5CC6CCC(C5)N6)nc(OCC56CCCN5CC(F)C6)nc4c3F)c12 (stereo not given) + COC1C(OC(N)=O)C(O)C(Oc2ccc3c(O)c(NC(=O)c4ccc(O)c(CC=C(C)C)c4)c(=O)oc3c2C)OC1(C)C", 95.3],
  ["C=CC(=O)N1CCN(c2nc(=O)n(-c3c(C)ccnc3C(C)C)c3nc(-c4c(O)cccc4F)c(F)cc23)C(C)C1 (stereo not given) + Nc1ccc(C#CCN(C(=O)Cc2ncc(C(F)(F)F)cc2C(F)(F)F)c2ccc(F)cc2)nn1", 94.5],
  ["Nc1ccn(C2OC(CO)C(O)C2(F)F)c(=O)n1 (stereo not given) + Cc1cccc(N(C)C(=O)C2C(O)CCN2c2nc(C)cc(C(F)(F)F)c2C#N)c1", 9.14],
  ["CCCS(=O)(=O)Nc1ccc(F)c(C(=O)c2c[nH]c3ncc(-c4ccc(Cl)cc4)cc23)c1F + Nc1ccc(C#CCN(C(=O)Cc2ncc(C(F)(F)F)cc2C(F)(F)F)c2ccc(F)cc2)nn1", 95.5],
  ["CC[C@@]1(O)C(=O)OCc2c1cc1n(c2=O)Cc2cc3c(CN(C)C)c(O)ccc3nc2-1 + Cc1cccc(N(C)C(=O)C2C(O)CCN2c2nc(C)cc(C(F)(F)F)c2C#N)c1", 17.1],
  ["CCc1cc2c(N3CCc4c(cc(Cn5ccnc5)cc4-c4cn(C)nc4C(F)(F)F)C3=O)ccnc2c(OC)n1 + Nc1ccc(C#CCN(C(=O)Cc2ncc(C(F)(F)F)cc2C(F)(F)F)c2ccc(F)cc2)nn1", 94.9],
  ["CC1COCCN1c1cc(C2(O)CC3CCC(C2)O3)c2cnn(-c3ccn[nH]3)c2n1 (stereo not given) + Nc1ccc(C#CCN(C(=O)Cc2ncc(C(F)(F)F)cc2C(F)(F)F)c2ccc(F)cc2)nn1", 16.1],
  ["C=CC(=O)N1CCN(c2nc(=O)n(-c3c(C)ccnc3C(C)C)c3nc(-c4c(O)cccc4F)c(F)cc23)C(C)C1 (stereo not given) + Cc1cccc(N(C)C(=O)C2C(O)CCN2c2nc(C)cc(C(F)(F)F)c2C#N)c1", 100],
  ["COc1cccc2c1C(=O)c1c(O)c3c(c(O)c1C2=O)CC(O)(C(=O)CO)CC3OC1CC(N)C(O)C(C)O1 (stereo not given) + COC1C(OC(N)=O)C(O)C(Oc2ccc3c(O)c(NC(=O)c4ccc(O)c(CC=C(C)C)c4)c(=O)oc3c2C)OC1(C)C", 63.9],
  ["COc1cccc(OCCCN)c1-c1cc(Nc2cnc(C#N)cn2)n[nH]1 + Cc1cccc(N(C)C(=O)C2C(O)CCN2c2nc(C)cc(C(F)(F)F)c2C#N)c1", 6.2],
  ["CC(C)n1c(=O)n(C)c2cnc3cc(F)c(-c4ccc(OCCCN5CCCCC5)nc4)cc3c21 + Nc1ccc(C#CCN(C(=O)Cc2ncc(C(F)(F)F)cc2C(F)(F)F)c2ccc(F)cc2)nn1", 108],
  ["C=CCn1c(=O)c2cnc(Nc3ccc(N4CCN(C)CC4)cc3)nc2n1-c1cccc(C(C)(C)O)n1 + Nc1ccc(C#CCN(C(=O)Cc2ncc(C(F)(F)F)cc2C(F)(F)F)c2ccc(F)cc2)nn1", 107],
  ["COc1cccc2c1C(=O)c1c(O)c3c(c(O)c1C2=O)CC(O)(C(=O)CO)CC3OC1CC(N)C(O)C(C)O1 (stereo not given) + Cc1cccc(N(C)C(=O)C2C(O)CCN2c2nc(C)cc(C(F)(F)F)c2C#N)c1", 24.7],
  ["COc1cccc(OCCCN)c1-c1cc(Nc2cnc(C#N)cn2)n[nH]1 + Nc1ccc(C#CCN(C(=O)Cc2ncc(C(F)(F)F)cc2C(F)(F)F)c2ccc(F)cc2)nn1", 6.73],
  ["CNCc1ccc(-c2[nH]c3cc(F)cc4c3c2CCNC4=O)cc1 + Nc1ccc(C#CCN(C(=O)Cc2ncc(C(F)(F)F)cc2C(F)(F)F)c2ccc(F)cc2)nn1", 101],
  ["O=C(c1cc(Cc2n[nH]c(=O)c3ccccc23)ccc1F)N1CCN(C(=O)C2CC2)CC1 + COC1C(OC(N)=O)C(O)C(Oc2ccc3c(O)c(NC(=O)c4ccc(O)c(CC=C(C)C)c4)c(=O)oc3c2C)OC1(C)C", 97.6]
]}

----------
# Test system: 415267-285-R-J2-PDC complex spheroid viability
# assay: Anticancer human tumor 415267-285-R-J2-PDC cell line growth inhibition [POLQ];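 further: luminescence used as stand-in measure of viable cells; spheroids exposed to compounds for one week before readout; 100% = DMSO vehicle control viability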
# particulars: second compound 0.0316 µM; first compound 0.01 µM; hits give low values
# Protocol: Multicellular complex tumor spheroid response to Polymerase (POL) inhibitors (novobiocin, ART-558, RP6685) in combination with a variety of drugs and investigational agents in selected tumor cell lines The POL inhibitors (novobiocin, ART-558, and RP6685) were evaluated both individually and in combination with standard of care and investigational anticancer small molecules within a complex spheroid model of solid tumors. . […]

{"columns": ["compound", "system.tested", "viability, T/C, %"],
 "data": [
  ["COc1cccc(OCCCN)c1-c1cc(Nc2cnc(C#N)cn2)n[nH]1 + COC1C(OC(N)=O)C(O)C(Oc2ccc3c(O)c(NC(=O)c4ccc(O)c(CC=C(C)C)c4)c(=O)oc3c2C)OC1(C)C", "415267-285-R-J2-PDC complex spheroid viability", 14.1],
  ["C=CCn1c(=O)c2cnc(Nc3ccc(N4CCN(C)CC4)cc3)nc2n1-c1cccc(C(C)(C)O)n1 + Nc1ccc(C#CCN(C(=O)Cc2ncc(C(F)(F)F)cc2C(F)(F)F)c2ccc(F)cc2)nn1", "415267-285-R-J2-PDC complex spheroid viability", 102],
  ["Cn1ncnc1[C@H]1c2n[nH]c(=O)c3cc(F)cc(c23)N[C@@H]1c1ccc(F)cc1 + Cc1cccc(N(C)C(=O)C2C(O)CCN2c2nc(C)cc(C(F)(F)F)c2C#N)c1", "415267-285-R-J2-PDC complex spheroid viability", 96.3],
  ["C=CCn1c(=O)c2cnc(Nc3ccc(N4CCN(C)CC4)cc3)nc2n1-c1cccc(C(C)(C)O)n1 + COC1C(OC(N)=O)C(O)C(Oc2ccc3c(O)c(NC(=O)c4ccc(O)c(CC=C(C)C)c4)c(=O)oc3c2C)OC1(C)C", "415267-285-R-J2-PDC complex spheroid viability", 96.1],
  ["C=CCn1c(=O)c2cnc(Nc3ccc(N4CCN(C)CC4)cc3)nc2n1-c1cccc(C(C)(C)O)n1 + Cc1cccc(N(C)C(=O)C2C(O)CCN2c2nc(C)cc(C(F)(F)F)c2C#N)c1", "415267-285-R-J2-PDC complex spheroid viability", 102],
  ["COc1cccc(OCCCN)c1-c1cc(Nc2cnc(C#N)cn2)n[nH]1 + Nc1ccc(C#CCN(C(=O)Cc2ncc(C(F)(F)F)cc2C(F)(F)F)c2ccc(F)cc2)nn1", "415267-285-R-J2-PDC complex spheroid viability", 29.9],
  ["Cn1ncnc1[C@H]1c2n[nH]c(=O)c3cc(F)cc(c23)N[C@@H]1c1ccc(F)cc1 + COC1C(OC(N)=O)C(O)C(Oc2ccc3c(O)c(NC(=O)c4ccc(O)c(CC=C(C)C)c4)c(=O)oc3c2C)OC1(C)C", "415267-285-R-J2-PDC complex spheroid viability", 101]
]}
